Target: Human CB2R (Cannabinoid receptor 2) (Homo sapiens, UniProt P34972)
Sequence (P34972 whole entry): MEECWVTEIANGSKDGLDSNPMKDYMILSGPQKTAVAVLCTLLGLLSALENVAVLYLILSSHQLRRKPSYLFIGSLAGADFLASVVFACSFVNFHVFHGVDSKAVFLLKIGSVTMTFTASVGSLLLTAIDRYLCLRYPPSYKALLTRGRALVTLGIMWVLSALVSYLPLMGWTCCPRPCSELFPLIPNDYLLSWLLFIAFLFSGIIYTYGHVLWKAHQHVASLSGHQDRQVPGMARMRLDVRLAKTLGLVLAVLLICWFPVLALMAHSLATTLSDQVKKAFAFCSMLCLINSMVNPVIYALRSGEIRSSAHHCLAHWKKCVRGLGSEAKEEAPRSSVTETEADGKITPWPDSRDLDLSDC
Test: CB-2 in vitro cAMP (HTRF) assay
Conditions: HEK cells, cAMP HTRF, 250 nM forskolin; mean where tested more than once; read-out: CB2 HEK_cAMP EC50
pEC50: −log10 of the molar value.
As shown below, each of these compounds has a reported pEC50 value.

COMPOUND: CCOC(=O)N1CCC(n2c(CC)nc3ccc(C(c4ccc(Cl)cc4)c4ccc(Cl)cc4)cc32)CC1 [Example 332]
OP: =
pEC50: 5.33
--
COMPOUND: O=C(O)c1ccc(CN2CCC(n3c(C4CC4)nc4ccc(C(c5ccc(Cl)cc5)c5ccc(Cl)cc5)cc43)CC2)o1 [Example 129]
OP: <
pEC50: 5.00
--
COMPOUND: O=S(=O)(N1CCC(n2c(C3CC3)nc3ccc(C(c4ccc(Cl)cc4)c4ccc5c(c4)OCO5)cc32)CC1)C(F)(F)F (stereo not drawn) [Example 321]
OP: =
pEC50: 5.40
--
COMPOUND: O=S(=O)(c1cc(Cl)c(O)c(Cl)c1)N1CCC(n2c(C3CC3)nc3ccc(C(c4ccc(Cl)cc4)c4ccc(Cl)cc4)cc32)CC1 [Example 222]
OP: =
pEC50: 5.30
--
COMPOUND: COc1cc(S(=O)(=O)N2CCC(n3c(C4CC4)nc4ccc(C(c5ccc(Cl)cc5)c5ccc(Cl)cc5)cc43)CC2)ccc1C(N)=O [Example 250]
OP: =
pEC50: 5.03
--
COMPOUND: O=S(=O)(N1CCC(n2c(C3CC3)nc3ccc(C(O)(c4ccc(Cl)cc4)c4ccc(Cl)cc4)cc32)CC1)C(F)(F)F [Example 303]
OP: <
pEC50: 5.00
